test system: CCRIS mutagenicity, Ames/micronucleus/aberration tests; assay: CCRIS mutagenicity studies; settings: Test System: AMES SALMONELLA TYPHIMURIUM; Strain/Indicator: TA100; Metabolic Activation: NONE; Method: STANDARD PLATE
Calls of active or inactive are those of the source. The rule behind the calls is not given here.
Response enum: yes (1) for active, no (0) for inactive

# count of solved cases: 4
Query: Returns: the outcome recorded for COC(=O)Nc1nc2ccc(C(=O)c3ccc(F)cc3)cc2[nH]1 in this assay.
Result: no (0)

Query: Record: N#Cc1ccc(C(=O)ON(OCc2ccccc2)C(=O)c2ccccc2)cc1
Result: yes (1)

Query: Here is the next molecule: Cc1snc2ccccc12
Result: no (0)

Query: And for O=C(O)C(=O)Nc1cccc(-c2nn[nH]n2)c1 ?
Result: no (0)

Next:
Query: Hi, sorry to bother you, what did the test record for CCCCOCCO ?
Result: no (0)

---

Tested on: CCRIS mutagenicity, Ames/micronucleus/aberration tests
Assay: CCRIS mutagenicity studies
Details: Test System: AMES SALMONELLA TYPHIMURIUM; Strain/Indicator: TA98; Metabolic Activation: NONE; Method: PREINCUBATION
Source text: The CCRIS database contains chemical records with carcinogenicity, mutagenicity, tumor promotion, and tumor inhibition test results. It was developed by the National Cancer Institute (NCI). Data are derived from studies cited in primary journals, current awareness tools, NCI reports, and other sources. Test results have been reviewed by experts in carcinogenesis and mutagenesis. CCRIS provides historical information from the years 1985 - 2011. It is no longer updated. […]
The source made the active and inactive calls. No rule for the calls is given here.
Please state which outcome applies, choosing from 1 (yes) for active, 0 (no) for inactive

The examples below pair each entry with its known result.
Query: Can you look up the reported call for O=[N+]([O-])c1ccc2c(c1)sc1ccccc12 for me?
Result: 1 (yes)

Query: C=CCOC(=O)c1ccccc1N ?
Result: 0 (no)

New cases:
Query: Hi, do you know how CC(C)CC(C)N (stereo unspecified) came out in this test?
Result: 0 (no)

Query: Now this one: CC(C)(N=NC(C)(C)C(=N)N)C(=N)N
Result: 1 (yes)

---

test system: CCRIS mutagenicity, Ames/micronucleus/aberration tests; assay: CCRIS mutagenicity studies; details: Test System: AMES SALMONELLA TYPHIMURIUM; Strain/Indicator: TA1535; Metabolic Activation: HAMSTER, LIVER, S-9, AROCLOR 1254 (10%); Method: PREINCUBATION
Calls of active or inactive are those of the source. The rule behind the calls is not given here.
Choose one outcome from this list and give only that: true (active), false (inactive)

Worked examples follow.
Query: For this compound, state the assay outcome: COC(=O)c1ccc(C)cc1
Result: false

Query: Also CCOC(=O)c1ccccc1C(=O)OCC ?
Result: false

Switching to the query record.
Query: How did this test come out for Oc1c(I)cc(Cl)c2cccnc12 ?
Result: false

---

tested on: CCRIS mutagenicity, Ames/micronucleus/aberration tests; assay: CCRIS mutagenicity studies; settings: Test System: AMES SALMONELLA TYPHIMURIUM; Strain/Indicator: TA98; Metabolic Activation: HAMSTER, LIVER, S-9, AROCLOR 1254 (30%); Method: PREINCUBATION
Activity calls are given as the source filed them. The rule behind the calls is not given here.
Outcome (select one): active, inactive

Query: Dear colleague, could you share the recorded outcome for Clc1ccc2ccccc2c1 when you have a moment?
Result: inactive

Query: Query COc1cc(N)ccc1C next
Result: active

Query: Also, Cc1ccc(C)o1 please.
Result: inactive

Query: Can you handle CCN(CC)CCNc1ccc(CO)c2sc3ccccc3c(=O)c12 next?
Result: active

Query: Try C=C(C)C#N next.
Result: inactive

Query: # iterate: Cc1ccc(Br)cc1
Result: inactive

Query: Same thing, different molecule: Clc1cc2c3nc4[n-]c(nc5nc(nc6nc(nc([n-]3)c2c(Cl)c1Cl)-c1c(Cl)c(Cl)c(Cl)c(Cl)c1-6)-c1c(Cl)c(Cl)c(Cl)c(Cl)c1-5)c1c(Cl)c(Cl)c(Cl)c(Cl)c41.[Cu+2]
Result: active

Query: // next record N#CCO
Result: inactive

Query: c1ccc(Nc2ccc3ccccc3c2)cc1 , same question.
Result: inactive

---

tested on: CCRIS mutagenicity, Ames/micronucleus/aberration tests; test: CCRIS mutagenicity studies; conditions: Test System: AMES SALMONELLA TYPHIMURIUM; Strain/Indicator: TA97; Metabolic Activation: RAT, LIVER, S-9, AROCLOR 1254; Method: PREINCUBATION
The source made the active and inactive calls. The rule behind the calls is not given here.
API: response.call in True (active), False (inactive)

Answered examples (3):
Query: Each compound tested received a call. Report the one for CCCCC/C(C=O)=C/c1ccccc1 .
Result: False

Query: c1ccc(Nc2ccc3ccccc3c2)cc1 ?
Result: False

Query: Consider next the compound Cc1cn([C@H]2C[C@H](O)[C@@H](CO)O2)c(=O)[nH]c1=O in the same way.
Result: False

***
Query: Which outcome was assigned to OCC1CO1 (stereo not drawn) in this test?
Result: True

Query: What would you report for COc1ccc2c3c([nH]c2c1)C(C)=NCC3 ?
Result: False

Query: Next: COc1cc(C(C)=O)cc(OC)c1O
Result: False

Query: Moving on to the next compound: O=C(O)CC(O)C(=O)O (stereo not drawn)
Result: False

---

test system: CCRIS mutagenicity, Ames/micronucleus/aberration tests; test: CCRIS mutagenicity studies; conditions: Test System: AMES SALMONELLA TYPHIMURIUM; Strain/Indicator: TA98; Metabolic Activation: HAMSTER, LIVER, S-9, AROCLOR 1254 (10%); Method: PREINCUBATION
Calls of active or inactive are those of the source. How the calls were made is not given here.
Lab note: assign the record to one of yes (1) for active, no (0) for inactive

Solved cases below.
Query: recorded result category for CC(C)CC(C)Nc1ccc(Nc2ccccc2)cc1 (configuration not stated) in this test
Result: no (0)

Query: Next compound up: CCCCC(CC)COC(=O)c1ccccc1C(=O)O (configuration not stated)
Result: no (0)

Query: Note, next up: CC(C)CC(C)N (configuration not stated)
Result: no (0)

Query: And for c1ccc(Nc2ccc3ccccc3c2)cc1 ?
Result: no (0)

Query: // next record C=CC(=O)OCCBr
Result: no (0)

Field: next compound
Query: How was c1ccc2c(c1)-c1cccc3c1c-2cc1ccccc13 classified in this test?
Result: yes (1)

---

test system: CCRIS mutagenicity, Ames/micronucleus/aberration tests; experiment: CCRIS mutagenicity studies; conditions: Test System: AMES SALMONELLA TYPHIMURIUM; Strain/Indicator: TA98; Metabolic Activation: NONE; Method: PREINCUBATION
Activity calls are given as the source filed them. How the calls were made is not given here.
Choose the fitting class; nothing outside YES (active), NO (inactive) is accepted.

Query: What is the recorded call for this compound in the test? C=C(C)C#N
Result: NO

Query: Also, CC(C)NC(=O)/C=C/c1ccc([N+](=O)[O-])o1 please.
Result: YES

Query: Please do the same for O=[N+]([O-])c1cccc2cc3ccccc3cc12 as well.
Result: YES

Query: Now consider O=C1C=CC(=O)c2ccccc21 .
Result: NO

Query: Can you check OCCOCCO next?
Result: NO

Turning now to a further compound:
Query: Dear colleague, could you share the recorded outcome for Nc1cccc(O)c1 when you have a moment?
Result: NO

---

system: CCRIS mutagenicity, Ames/micronucleus/aberration tests; assay: CCRIS mutagenicity studies; conditions: Test System: AMES SALMONELLA TYPHIMURIUM; Strain/Indicator: TA100; Metabolic Activation: NONE; Method: STANDARD PLATE
Calls of active or inactive are those of the source. How the calls were made is not given here.
Parameter call: string, one of active, inactive

Please review the following examples before continuing.
Query: GET /call?item= COc1cc(CCC(C)=O)ccc1O returns the recorded outcome of this test.
Result: inactive

Query: And for CC(=O)ON(OCc1ccc([N+](=O)[O-])cc1)C(=O)c1ccccc1 ?
Result: active

Query: Same read-out for NCc1cccc(CN)c1 ?
Result: inactive

Query: Same question for C[C@H]1[C@H](C)CC[C@]2(C(=O)O[C@@H]3O[C@H](CO[C@@H]4O[C@H](CO)[C@@H](O[C@@H]5O[C@@H](C)[C@H](O)[C@@H](O)[C@H]5O)[C@H](O)[C@H]4O)[C@@H](O)[C@H](O)[C@H]3O)CC[C@]3(C)C(=CC[C@@H]4[C@@]5(C)C[C@@H](O)[C@H](O)[C@@](C)(CO)[C@@H]5CC[C@]43C)[C@H]12 please.
Result: inactive

Please find the next compound below.
Query: How did this test come out for Cc1cc(Cl)ccc1O ?
Result: inactive

---

system: CCRIS mutagenicity, Ames/micronucleus/aberration tests; test: CCRIS mutagenicity studies; conditions: Test System: AMES SALMONELLA TYPHIMURIUM; Strain/Indicator: TA1538; Metabolic Activation: RAT, LIVER, S-9, AROCLOR 1254; Method: STANDARD PLATE
Activity calls are given as the source filed them. The rule behind the calls is not given here.
Thanks in advance; please answer with one of these: t for active, f for inactive

Please review the following examples before continuing.
Query: // param item: C=CCc1ccc(O)cc1 ; yields the recorded call
Result: f

Query: Entry O=C(CCCN1CCN(c2ccccn2)CC1)c1ccc(F)cc1 please
Result: f

Query: And what about the compound CCNc1cc2oc(=O)cc(C)c2cc1C ?
Result: f

Query: Repeat for the following compound: COc1cc(N)c([N+](=O)[O-])cc1N
Result: t

Query: Same question, CC[N+](CC)=c1ccc2nc3c(cc(N)c4ccccc43)oc-2c1 this time
Result: t

Query: One more compound: Cc1ccc2cc3c(ccc4ccccc43)c3c2c1CC3
Result: t

Others:
Query: What classification did CC(=O)Nc1ccc(C(=O)CCl)cc1 end up with in this test?
Result: f

Query: Also CCOC(=O)NNc1nncc2ccccc12 , if possible.
Result: f

Query: Query CCCCC=O next
Result: f

Query: Please do the same for O=C1c2ccccc2CCc2ccccc21 as well.
Result: f

Query: Now this one: CCC1(c2ccccc2)C(=O)NC(=O)NC1=O
Result: f
